tested on: T-47D breast; assay: NCI-60 one-dose screen, 48 h; details: 10 µM unless noted
The panel holds about 83,000 compounds, 20% with a hit somewhere; the sample as a whole holds those more often. Calls of active or inactive are those of the source. How the source made its calls: active means growth percent below 10; inactive means the rest.
Please answer using one outcome listed in active, inactive

Prompt line: Record request — test call for CCCCCCCCCN(CCCCCCCCC)C(C)C(=O)c1ccc2cc(Br)c3ccccc3c2c1 (centres undefined)
Response line: inactive

Prompt line: Record request — test call for CCCCCCCCN(CCCCCCCC)CC(O)c1ccc(Cl)c(C)c1Cl (centres undefined)
Response line: inactive

Prompt line: Record request — test call for COc1cccc(-c2[nH]c(=S)ncc2C(=O)c2ccccc2)c1
Response line: inactive

Prompt line: Record request — test call for O=C(CCN1CCCCC1)c1ccc2ccccc2c1
Response line: inactive

Prompt line: Record request — test call for COc1ccc2[nH]c(C(=O)N3CCN(C(=O)OCc4ccc5c(Br)cc(Br)c(O)c5n4)CC3)cc2c1
Response line: active

Prompt line: Record request — test call for CC1(C)C(=O)/C(=C\c2ccco2)C[C@]2(C)[C@H]3CC=C4[C@@H]5C[C@](C)(C(=O)O)CC[C@]5(C)CC[C@@]4(C)[C@]3(C)CC[C@@H]12
Response line: active

Prompt line: Record request — test call for N#C/C(C(=O)c1ccccc1)=C1/C(=O)Nc2ccc(Br)cc21
Response line: inactive

Prompt line: Record request — test call for c1ccc2c(c1)CN(CCCN1CCOCC1)C2
Response line: inactive

Prompt line: Record request — test call for CCN(CC)CCSC(=O)C(O)(c1ccccc1)C1CCCC1 (centres undefined)
Response line: inactive

Prompt line: Record request — test call for Cc1cccc(/C=C2\N=C(c3ccccc3)N(c3ccc(S(N)(=O)=O)cc3)C2=O)c1
Response line: inactive

Prompt line: Record request — test call for CC1(C)CC[C@]2(C(=O)O)CC[C@]3(C)[C@H](CC[C@@H]4[C@@]5(C)CCC(=O)C(C)(C)[C@@H]5CC[C@]43C)[C@H]2[C@H]1OC(=O)C(F)(F)F
Response line: active

Prompt line: Record request — test call for Cc1nc(Cl)cc(N(c2cc(Cl)nc(C)n2)c2ncc(C(=O)Nc3c(C)cccc3Cl)s2)n1
Response line: inactive

Prompt line: Record request — test call for O=c1c2c3c(sc2n2cnnc2n1Cc1ccccc1)CCCC3
Response line: inactive

Prompt line: Record request — test call for O=C1Nc2ccccc2/C1=C/C(=O)c1ccc(N2CCCCC2)cc1
Response line: inactive

Prompt line: Record request — test call for O=C(NCCCCCCCNC(=O)OCc1ccc2c(Cl)cc(Cl)c(O)c2n1)OCc1ccc2c(Cl)cc(Cl)c(O)c2n1
Response line: active

Prompt line: Record request — test call for C[C@@H]1C[C@H]2C(=O)O[C@@H](C)[C@H](NC(=O)[C@H](Cc3cc(F)cc(F)c3)NC(=O)Nc3ccc(C4CC4)cc3F)C(=O)N3CCC[C@H]3C(=O)N3CCCC[C@H]3C(=O)N[C@@H](C)C(=O)N2C1
Response line: active

Prompt line: Record request — test call for O=C(CCN1CCCCC1)c1ccc(Cl)cc1
Response line: inactive

Prompt line: Record request — test call for CCOC(=O)c1cc(C(=O)c2ccc(OC)c(OC)c2)n2ccc(-c3ccccn3)cc12
Response line: inactive

Prompt line: Record request — test call for O=C1COCCN1c1ccc(NCc2cn(Cc3ccccc3)c3ccccc23)cc1
Response line: inactive

----------
system: SN12C renal; assay: NCI-60 one-dose screen, 48 h; details: 10 µM unless noted
This is part of a sample that, as a whole, favours compounds with a hit. Of some 83,000 tested, about 20% had one in any assay. Calls of active or inactive are those of the source. The calls were made as follows: active = growth percent below 10; inactive = the rest.
Please answer using one outcome listed in true (1) for active, false (0) for inactive

Prompt line: Record request — test call for C=C(C)[C@@H]1CC[C@]2(C)[C@H](C(=O)C=C3[C@@H]4C[C@](C)(C(=O)N5CCN(C)CC5)CC[C@]4(C)CC[C@]32C)[C@@]1(C)CCC#N
Response line: true (1)

Prompt line: Record request — test call for O=C1CC(c2ccccc2)Cc2nc3ccc(Br)cc3cc21 (centres undefined)
Response line: false (0)

Prompt line: Record request — test call for CCCCCCCCCCCCNC(=S)N/N=C/c1ccccc1O
Response line: false (0)

Prompt line: Record request — test call for CC1(C)CC[C@]2(C(=O)OC(=O)[C@]34CCC(C)(C)C[C@@H]3C3=CC[C@@H]5[C@@]6(C)CCC(=O)C(C)(C)[C@@H]6CC[C@@]5(C)[C@]3(C)CC4)CC[C@]3(C)C(=CC[C@@H]4[C@@]5(C)CCC(=O)C(C)(C)[C@@H]5CC[C@]43C)[C@H]2C1
Response line: false (0)

Prompt line: Record request — test call for CC1Cc2ccc(OCCN(C)C)cc2C1=O (centres undefined)
Response line: false (0)

Prompt line: Record request — test call for COc1cc(/C=C/C(=O)/C=C/c2ccc(-n3ccnc3C)cc2)ccc1O
Response line: false (0)

Prompt line: Record request — test call for COc1cc(C)cc2oc3oc(=N)c(C(=O)c4ccccc4)cc3c(=O)c12
Response line: false (0)

Prompt line: Record request — test call for COc1cc(OC)cc(C(=O)Nc2cc(-c3cccnc3)nc(NCCCN3CCOCC3)n2)c1
Response line: false (0)

Prompt line: Record request — test call for CS(=O)(=O)c1cccnn1
Response line: false (0)

----------
test system: SW-620 colon; assay: NCI-60 one-dose screen, 48 h; details: 10 µM unless noted
The panel holds about 83,000 compounds, 20% with a hit somewhere; the sample as a whole holds those more often. Activity calls are given as the source filed them. The calls were made as follows: active = growth percent below 10; inactive = the rest.
Please answer using one outcome listed in active, inactive

Prompt line: Record request — test call for C[C@H]1[C@H](C)CC[C@]2(COC(=O)CCC(=O)O)CC[C@]3(C)C(=CC[C@@H]4[C@@]5(C)CCCNC(C)(C)[C@@H]5CC[C@]43C)[C@H]12
Response line: inactive

Prompt line: Record request — test call for CCOC(=O)C(=Cc1ccccc1[N+](=O)[O-])C(=O)OCC
Response line: inactive

Prompt line: Record request — test call for C=CCCCCOc1ccccc1-c1cnc(OCCCCC=C)n1C
Response line: inactive

Prompt line: Record request — test call for CCCc1cc2cc(-n3nc(C)c4c3CC(C)(C)CC4=O)cc(NC3CCSCC3)c2c(=O)[nH]1
Response line: inactive

Prompt line: Record request — test call for CC(C)CCSc1nc(N)nc2nc[nH]c12
Response line: inactive

Prompt line: Record request — test call for O=C(COc1cccc(/C=C2\Oc3ccccc3C2=O)c1)c1ccc([N+](=O)[O-])cc1
Response line: inactive

Prompt line: Record request — test call for CCN1c2ccccc2C(Cl)(c2ccc(N(C)C)cc2)c2ccccc21
Response line: inactive

Prompt line: Record request — test call for CCOC(=O)C(c1ccccc1)N1C(=O)c2ccccc2C1=O (stereo not given)
Response line: inactive

Prompt line: Record request — test call for COc1ccc(-c2cc(-c3ccc(OC)c(OC)c3)nc(SCCCCCC(=O)NO)n2)cc1
Response line: inactive

Prompt line: Record request — test call for COc1ccc(C(=O)CSc2nccc(Nc3ccc(C(=O)O)cc3)n2)cc1
Response line: inactive

Prompt line: Record request — test call for COc1ccc(C(=O)/C=C/c2ccccn2)c(O)c1
Response line: inactive

Prompt line: Record request — test call for CC1(C)CC[C@]2(C(=O)O)CC[C@]3(C)C(=CC[C@@H]4[C@@]5(C)C/C(=C/c6ccco6)C(=O)C(C)(C)[C@@H]5CC[C@]43C)[C@@H]2C1
Response line: active

Prompt line: Record request — test call for Cc1cc(C)c(-c2cc(O)c(-c3c(C)cc(C)cc3C)cc2O)c(C)c1
Response line: inactive

Prompt line: Record request — test call for C=C(C)C1CCC2(C(=O)O)CCC3(C)C(CCC4C5(C)CCC(OC(=O)NCc6ccccc6)C(C)(C)C5CCC43C)C12 (stereo not given)
Response line: inactive

Prompt line: Record request — test call for NC(=O)CC1C=CCC1 (stereo not given)
Response line: inactive

Prompt line: Record request — test call for O=C(Oc1ccc(Cl)cc1[N+](=O)[O-])Oc1ccc(Cl)cc1[N+](=O)[O-]
Response line: inactive

Prompt line: Record request — test call for N#Cc1ccc(-c2ccc(COc3ccc(CC4SC(=O)NC4=O)cc3)cc2)cc1 (stereo not given)
Response line: inactive

Prompt line: Record request — test call for COc1ccc(/C=C2\N=C(Nc3ccccc3)N(NC(=O)c3ccccn3)C2=O)cc1
Response line: inactive

Prompt line: Record request — test call for Nc1nc(Cl)c2ncn(Cc3cc4c(cc3I)OCO4)c2n1
Response line: inactive

Prompt line: Record request — test call for CCOC(=O)c1sc2nc(-c3cc(OC)c(OC)c(OC)c3)nc(N3CCOCC3)c2c1C
Response line: inactive

----------
Provide the reported growth of each item.
tested on: A549/ATCC NSCLC; assay: NCI-60 one-dose screen, 48 h (100 = growth as untreated, 0 = no growth, -100 = all killed); settings: 10 µM unless noted
This is part of a sample that, as a whole, favours compounds with a hit. Of some 83,000 tested, about 20% had one in any assay. Calls of active or inactive are those of the source. How the source made its calls: active means growth percent below 10; inactive means the rest.

Prompt line: Provide measured growth value, entry: CN(C)Cc1ccc[nH]1
Response line: 99.4% (inactive)

Prompt line: Provide measured growth value, entry: O=C(Nc1ccc(Cl)c(C(F)(F)F)c1)Nc1ccc(-c2cccnc2)cc1N1CCC(CO)CC1
Response line: 22.2% (inactive)

Prompt line: Provide measured growth value, entry: CSc1nc(=S)c2nc(SC)n(-c3ccccc3)c2[nH]1
Response line: 97.8% (inactive)

Prompt line: Provide measured growth value, entry: C=C(CN=[N+]=[N-])[C@@H]1CC[C@]2(C)[C@H](CC[C@@H]3[C@H]4[C@H]5OC(=O)[C@@]4(CCC5(C)C)CC[C@]32C)[C@@]1(C)CCC#N
Response line: 78.6% [100 µM] (inactive)

Prompt line: Provide measured growth value, entry: Clc1ccc(N2CCN(CCCN3CCN(c4cccc(Cl)c4)CC3)CC2)cc1
Response line: 58.3% (inactive)
